Each entry below carries its recorded glycan array binding signal (z-score).
Target: Neu5Ac(a2-6)Gal(b1-4)GlcNAc(b1-2)[Neu5Ac(a2-6)Gal(b1-4)GlcNAc(b1-4)]Man(a1-3)[GlcNAc(b1-4)][Neu5Ac(a2-6)Gal(b1-4)GlcNAc(b1-4)Man(a1-6)]Man(b1-4)GlcNAc(b1-4)GlcNAc
Test: glycan array binding signal (z-score within array); higher = stronger binding
Settings: glycan notation: IUPAC condensed, linker removed
The entries come from a sample that favours the strongest signals as a whole.
Could you keep your reply to the number by itself?

MXA PilAct-eGFP (Myxococcus xanthus), Q59589 (protein) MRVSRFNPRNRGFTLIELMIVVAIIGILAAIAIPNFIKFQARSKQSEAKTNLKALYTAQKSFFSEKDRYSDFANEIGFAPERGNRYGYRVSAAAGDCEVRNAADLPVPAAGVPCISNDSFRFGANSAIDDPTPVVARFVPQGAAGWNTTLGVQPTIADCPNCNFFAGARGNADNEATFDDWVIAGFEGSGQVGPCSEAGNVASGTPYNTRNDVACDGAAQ | -0.544

Please give the measured glycan array binding signal (z-score) for this binder: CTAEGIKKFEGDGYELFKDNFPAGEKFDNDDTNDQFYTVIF [MUB40 (Lactobacillus reuteri)]
-0.219
